biological target: Telomerase reverse transcriptase (Homo sapiens, UniProt O14746); experiment: Inhibition of telomerase in human SGC7901 cells by TRAP assay
Sequence (O14746 whole entry): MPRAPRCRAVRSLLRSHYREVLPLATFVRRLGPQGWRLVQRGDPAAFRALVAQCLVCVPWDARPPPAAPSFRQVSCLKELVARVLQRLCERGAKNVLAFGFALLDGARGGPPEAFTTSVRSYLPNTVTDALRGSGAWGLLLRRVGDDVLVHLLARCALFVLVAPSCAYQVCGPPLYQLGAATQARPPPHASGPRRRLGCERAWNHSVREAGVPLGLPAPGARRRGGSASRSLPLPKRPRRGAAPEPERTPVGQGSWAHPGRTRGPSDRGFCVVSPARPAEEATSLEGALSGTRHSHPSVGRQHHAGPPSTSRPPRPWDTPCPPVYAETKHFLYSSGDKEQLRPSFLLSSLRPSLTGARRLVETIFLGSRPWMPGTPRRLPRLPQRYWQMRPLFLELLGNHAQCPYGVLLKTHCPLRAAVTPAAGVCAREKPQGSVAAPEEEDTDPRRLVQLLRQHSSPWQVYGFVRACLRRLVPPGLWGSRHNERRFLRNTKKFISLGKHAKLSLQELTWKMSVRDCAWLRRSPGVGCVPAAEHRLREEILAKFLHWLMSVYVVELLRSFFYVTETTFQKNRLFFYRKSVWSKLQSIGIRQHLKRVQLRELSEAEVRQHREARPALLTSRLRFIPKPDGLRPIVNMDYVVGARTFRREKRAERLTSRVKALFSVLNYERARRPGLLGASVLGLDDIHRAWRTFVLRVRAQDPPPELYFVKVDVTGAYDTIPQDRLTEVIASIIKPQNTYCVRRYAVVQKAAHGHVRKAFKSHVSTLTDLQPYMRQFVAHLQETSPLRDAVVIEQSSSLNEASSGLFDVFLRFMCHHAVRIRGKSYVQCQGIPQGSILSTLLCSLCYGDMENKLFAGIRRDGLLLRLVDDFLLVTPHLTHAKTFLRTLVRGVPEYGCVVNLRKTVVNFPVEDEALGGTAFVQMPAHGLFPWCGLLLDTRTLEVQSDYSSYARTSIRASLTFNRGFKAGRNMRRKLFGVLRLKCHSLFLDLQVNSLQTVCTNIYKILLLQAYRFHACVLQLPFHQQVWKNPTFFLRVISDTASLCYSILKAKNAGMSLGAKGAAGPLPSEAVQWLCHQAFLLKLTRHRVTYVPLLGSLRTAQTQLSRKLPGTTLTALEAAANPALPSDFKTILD
endpoint: pIC50
Here pIC50 is given on a logarithmic scale as minus log10 of the concentration in mol/L.

## Task Could you tell me which pIC50 is on file for `Clc1ccc(CSc2nnc(-c3cccc4ccccc34)o2)cn1` ?
## Result 5.38

## Task Could you tell me which pIC50 is on file for `COc1ccc(-c2nnc(SCc3ccc(Cl)nc3)o2)c(O)c1` ?
## Result 5.64
